meta.source: patent US10543212B2

Listed here are compounds together with their documented pIC50.
- TESTED_TARGET: Full-length, GST-tagged, human CaMKIIδ (Homo sapiens)
- Construct: Full-Length, Glutathione-S-Transferase(GST)-Tagged, Human CaMKIIδ was purchased from Carna Biosciences; purchased Carna Biosciences 02-111
- Sequence (Q13557 1-478 isoform Q13557-12): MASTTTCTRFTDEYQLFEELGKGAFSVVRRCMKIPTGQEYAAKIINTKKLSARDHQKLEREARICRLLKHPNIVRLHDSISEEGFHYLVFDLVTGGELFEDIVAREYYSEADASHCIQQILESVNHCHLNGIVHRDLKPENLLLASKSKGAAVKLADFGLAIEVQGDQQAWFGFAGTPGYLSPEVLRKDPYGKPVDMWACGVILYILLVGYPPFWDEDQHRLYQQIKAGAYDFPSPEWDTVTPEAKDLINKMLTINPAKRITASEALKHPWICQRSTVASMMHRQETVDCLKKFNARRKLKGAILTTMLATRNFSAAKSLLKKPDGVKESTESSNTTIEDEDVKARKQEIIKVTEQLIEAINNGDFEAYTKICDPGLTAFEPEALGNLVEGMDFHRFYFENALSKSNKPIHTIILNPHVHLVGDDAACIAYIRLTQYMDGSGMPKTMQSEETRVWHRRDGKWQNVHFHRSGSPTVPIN
- MEASUREMENT_NOTES: CaMKIIδ binding assay (TR-FRET with BODIPY-labeled probe ligand)
- STUDY_CONDITIONS: Table 2; activity class for CaMKIIδ
pIC50: −log10 of the molar value.

These solved cases illustrate the format of a correct answer.
- COMPOUND: "CCn1cc(Nc2ncc(-c3ccc(Cl)c(O[C@@H](C)Cn4cnnn4)c3)cn2)c(N2CCC2)n1 [Example 668]"
  MEASUREMENT_NAME: "pIC50"
  RESULT: "≤ 7.00"
- COMPOUND: "C[C@@H](Cn1cnnn1)Oc1cc(-c2cnc(Nc3cc(C(F)(F)F)n(C)n3)nc2)ccc1Cl [Example 711]"
  MEASUREMENT_NAME: "pIC50"
  RESULT: "≤ 7.00"
- COMPOUND: "COc1cc(N2CCOC(CO)C2)ccc1Nc1ncc(-c2ccc(Cl)c(O[C@@H](C)Cn3cnnn3)c2)cn1 (stereo partly drawn) [Example 594]"
  MEASUREMENT_NAME: "pIC50"
  RESULT: "7.00 to 8.00"
- COMPOUND: "C[C@@H](Cn1cnnn1)Oc1cc(-c2cnc(Nc3cc(C(F)(F)F)nn3C)nc2)ccc1Cl [Example 720]"
  MEASUREMENT_NAME: "pIC50"
  RESULT: "7.00 to 8.00"
- COMPOUND: "COc1cc(N2CCN(C3CCOCC3)CC2)cnc1Nc1ncc(-c2ccc(Cl)c(O[C@@H](C)Cn3cnnn3)c2)cn1 [Example 647]"
  MEASUREMENT_NAME: "pIC50"
  RESULT: "7.00 to 8.00"

Now take the following compound into account.
Per the records, this compound ( Cc1ncc(N2CC(CN3CCOCC3)C2)cc1Nc1ncc(-c2ccc(Cl)c(O[C@@H](C)Cn3cnnn3)c2)cn1 [Example 610] ) has pIC50 equal to > 8.00
